Values from PubChem BioAssay AID248

Below, each entry is listed alongside its reported T/C.
Tested on: L1210 leukemia ip in BDF1 mice, survival T/C
run description: NCI In Vivo Anticancer Drug Screen. Data for tumor model L1210 Leukemia (intraperitoneal) in B6D2F1 (BDF1) mice
condition: endpoint: mean survival time; dose: 20.0 mg/kg/injection; schedule: Q01DX009 (ip); vehicle: saline; higher = longer survival
Toxic doses and inconclusive results are not listed.

{"molecule": "CC(C)C(CCN1CCCCC1)(CN=C(N)N)c1cccc2ccccc12 (centres undefined)", "T/C": "101 % of control"}
{"molecule": "CC(=O)Oc1cc2c[n+](C)c3c4cc(OC(C)=O)c(OC(C)=O)cc4ccc3c2cc1OC(C)=O", "T/C": "101 % of control"}
{"molecule": "c1ccc([C@H]2CN3CCSC3=N2)cc1", "T/C": "94 % of control"}
{"molecule": "COc1cc2ccc3c4cc5c(cc4c[n+](C)c3c2cc1OC)OCO5", "T/C": "112 % of control"}
